B1: Arabidopsis thaliana cryptochrome 2 (CRY2, UniProt Q96524), residues 1-535 fused after the Gal4 DNA-binding domain (Gal4BD-CRY2(535)); mutagenized window 321-412, Q96524 (parent)
chain: MKMDKKTIVWFRRDLRIEDNPALAAAAHEGSVFPVFIWCPEEEGQFYPGRASRWWMKQSLAHLSQSLKALGSDLTLIKTHNTISAILDCIRVTGATKVVFNHLYDPVSLVRDHTVKEKLVERGISVQSYNGDLLYEPWEIYCEKGKPFTSFNSYWKKCLDMSIESVMLPPPWRLMPITAAAEAIWACSIEELGLENEAEKPSNALLTRAWSPGWSNADKLLNEFIEKQLIDYAKNSKKVVGNSTSLLSPYLHFGEISVRHVFQCARMKQIIWARDKNSEGEESADLFLRGIGLREYSRYICFNFPFTHEQSLLSHLRFFPWDADVDKFKAWRQGRTGYPLVDAGMRELWATGWMHNRIRVIVSSFAVKFLLLPWKWGMKYFWDTLLDADLECDILGWQYISGSIPDGHELDRLDNPALQGAKYDPEGEYIRQWLPELARLPTEWIHHPWDAPLTVLKASGVELGTNYAKPIVDIDTARELLAKAISRTREAQIMIGAAPDEIVADSFEALGANTIKEPGLCPSVSSNDQQVPSAV

- Variants of: B1
- TEST: yeast two-hybrid growth selection (MaV203; Gal4BD-CRY2(1-535) library x Gal4AD-CIB1; URA3 reporter on SC -Trp/-Leu/-Ura) in the dark, deep sequencing before and after selection, Enrich2 scoring; three independent screens (one at 48 h, two …)
- ASSAY SETUP: with CIB1 (CRYPTOCHROME-INTERACTING BASIC-HELIX-LOOP-HELIX 1), dark (no blue light), screens 1, 3 and 4, Svar > 0 = enriched under dark selection for CRY2-CIB1 two-hybrid growth (URA3 reporter), < 0 = depleted, relative to wild type (whose scores are 0). 'The Enrich2 software calculates, parent: 0, not an affinity, scale: Enrich2 score, numbering: uniprot, sequence starts at 1
Decide by enrichment: equal to or exceeding -0.2 means rule met, less means rule not met.

Prompt: State whether the measured enrichment reaches -0.2, counting equality as reaching it, for A323S
Response: rule met

Prompt: enrichment >= -0.2 for Q333L ?
Response: rule met

Prompt: Kindly determine if enrichment recorded for W376G is above or exactly -0.2.
Response: rule not met

Prompt: enrichment >= -0.2 for V341M ?
Response: rule not met

Prompt: I'd appreciate it if you could say whether Y338F has enrichment at least equal to -0.2.
Response: rule not met

Prompt: Evaluate I361S : enrichment at minimum -0.2?
Response: rule not met

Prompt: Hi team, for I358R , is the recorded enrichment at or above -0.2?
Response: rule met

Prompt: Could you tell me if the measured enrichment of G352E reaches -0.2 or more?
Response: rule not met

Prompt: Is the recorded value of enrichment equal to or greater than -0.2 for this variant? L385I
Response: rule met

Prompt: Does the variant R357K have recorded enrichment that is -0.2 or more?
Response: rule met

Prompt: Hi, just wondering whether M345L shows enrichment of -0.2 or higher.
Response: rule not met

Prompt: Assess whether reported enrichment for L372F sits at -0.2 or higher.
Response: rule met

Prompt: Could you please find out whether F328L has enrichment that meets -0.2 or exceeds it?
Response: rule not met

Prompt: Record D383G ; criterion: enrichment no lower than -0.2. Met?
Response: rule not met

Prompt: For this variant, is measured enrichment -0.2 or higher? L395Q
Response: rule met

Prompt: # check: enrichment of W349C is greater than or equal to -0.2
Response: rule met

Prompt: Has R335K a recorded enrichment greater than or equal to -0.2?
Response: rule met

Prompt: State whether the measured enrichment reaches -0.2, counting equality as reaching it, for E347V
Response: rule not met

Prompt: In plain terms: is recorded enrichment at least -0.2 for D387N ?
Response: rule not met

Prompt: Record W397R ; criterion: enrichment no lower than -0.2. Met?
Response: rule not met

Prompt: Would you say S401Y shows enrichment at minimum -0.2?
Response: rule met

Prompt: Has I394T a recorded enrichment greater than or equal to -0.2?
Response: rule met

Prompt: Would you say I361M shows enrichment at minimum -0.2?
Response: rule not met

Prompt: Say whether R357G shows enrichment of -0.2 or more.
Response: rule met

Prompt: Determine whether measured enrichment meets or exceeds -0.2 for F381C
Response: rule met

Prompt: Evaluate Q333K : enrichment at minimum -0.2?
Response: rule not met

Prompt: Does the variant Y399D have recorded enrichment that is -0.2 or more?
Response: rule met

Prompt: API: above_or_equal(metric=enrichment, cutoff=-0.2) for item M345V
Response: rule not met

Prompt: Check the entry D383A : does enrichment equal or exceed -0.2?
Response: rule not met

Prompt: Quick check, enrichment >= -0.2? I361V
Response: rule not met

Prompt: Please tell me: is the variant W331G at or over -0.2 in terms of enrichment?
Response: rule not met

Prompt: Entry D387Y : is its enrichment no less than -0.2?
Response: rule not met

Prompt: Tell me whether enrichment is at least -0.2 here: I358V
Response: rule met

Prompt: Does enrichment meet or surpass -0.2 for L390S ?
Response: rule not met

Prompt: Kindly determine if enrichment recorded for Q333P is above or exactly -0.2.
Response: rule not met

Prompt: Could you tell me if the measured enrichment of D324E reaches -0.2 or more?
Response: rule met

Prompt: Textbook exercise: given the entry F381T , state whether its enrichment is greater than or equal to -0.2.
Response: rule met

Prompt: Could you please find out whether T384I has enrichment that meets -0.2 or exceeds it?
Response: rule not met

Prompt: Tell me whether enrichment is at least -0.2 here: F328S
Response: rule not met

Prompt: Given T336P , state whether its enrichment is at least -0.2.
Response: rule not met

Prompt: Please tell me: is the variant A350P at or over -0.2 in terms of enrichment?
Response: rule not met

Prompt: Evaluate R357I : enrichment at minimum -0.2?
Response: rule not met

Prompt: Does the reported enrichment for D406N fall at or above the -0.2 mark?
Response: rule not met

Prompt: Please tell me: is the variant S401F at or over -0.2 in terms of enrichment?
Response: rule met

Prompt: Please tell me: is the variant R359I at or over -0.2 in terms of enrichment?
Response: rule not met

Prompt: Check if enrichment >= -0.2 (inclusive). Item: G377E
Response: rule not met

Prompt: API: above_or_equal(metric=enrichment, cutoff=-0.2) for item P405H
Response: rule met

Prompt: Record T351A ; criterion: enrichment no lower than -0.2. Met?
Response: rule not met

Prompt: Determine whether this variant has enrichment no lower than -0.2: G344E
Response: rule not met

Prompt: Threshold query (enrichment >= -0.2) on A330S
Response: rule met

Prompt: Hello, I need to know if G396S has measured enrichment not below -0.2. Thanks!
Response: rule not met

Prompt: Textbook exercise: given the entry G407R , state whether its enrichment is greater than or equal to -0.2.
Response: rule met

Prompt: Hi, just wondering whether I404F shows enrichment of -0.2 or higher.
Response: rule met

Prompt: Dear colleague, could you confirm whether M378R has enrichment at or above -0.2?
Response: rule met

Prompt: Does the reported enrichment for D406Y fall at or above the -0.2 mark?
Response: rule not met

Prompt: enrichment >= -0.2 for K368V ?
Response: rule met

Prompt: State whether the measured enrichment reaches -0.2, counting equality as reaching it, for D322G
Response: rule met

Prompt: Is reported enrichment greater than or equal to -0.2 here: V367G
Response: rule not met

Prompt: Is the recorded value of enrichment equal to or greater than -0.2 for this variant? L385H
Response: rule met

Prompt: For this variant, is measured enrichment -0.2 or higher? G334S
Response: rule not met

Prompt: Tell me whether enrichment is at least -0.2 here: I358K
Response: rule not met

Prompt: Check the entry T336S : does enrichment equal or exceed -0.2?
Response: rule met

Prompt: Reported enrichment at or above -0.2? D324G
Response: rule met

Prompt: Check the entry A366D : does enrichment equal or exceed -0.2?
Response: rule not met

Prompt: Threshold query (enrichment >= -0.2) on S401T
Response: rule met

Prompt: // inclusive: enrichment at least -0.2? input: A366T
Response: rule met

Prompt: Is reported enrichment greater than or equal to -0.2 here: I361L
Response: rule met

Prompt: In plain terms: is recorded enrichment at least -0.2 for E409T ?
Response: rule met

Prompt: Hi team, for A330V , is the recorded enrichment at or above -0.2?
Response: rule not met

Prompt: Exam item: decide whether the reported enrichment for P373T is at least -0.2.
Response: rule met

Prompt: Say whether G334V shows enrichment of -0.2 or more.
Response: rule not met

Prompt: API: above_or_equal(metric=enrichment, cutoff=-0.2) for item A343G
Response: rule not met

Prompt: I'd appreciate it if you could say whether L386M has enrichment at least equal to -0.2.
Response: rule met

Prompt: Entry F328P : is its enrichment no less than -0.2?
Response: rule met

Prompt: I'd appreciate it if you could say whether D326N has enrichment at least equal to -0.2.
Response: rule not met

Prompt: Quick check: does G337C have enrichment greater than or equal to -0.2?
Response: rule not met

Prompt: Is enrichment for W353R at or above -0.2?
Response: rule not met

Prompt: Could you tell me if the measured enrichment of D326E reaches -0.2 or more?
Response: rule not met

Prompt: Check the entry I394A : does enrichment equal or exceed -0.2?
Response: rule met

Prompt: I'd appreciate it if you could say whether R335G has enrichment at least equal to -0.2.
Response: rule not met

Prompt: Record Y380S ; criterion: enrichment no lower than -0.2. Met?
Response: rule not met

Prompt: Test whether the variant F369I records enrichment of -0.2 or higher.
Response: rule met

Prompt: State whether the measured enrichment reaches -0.2, counting equality as reaching it, for T384P
Response: rule not met

Prompt: Please check the record D389V and state if its enrichment is at or above -0.2.
Response: rule not met

Prompt: Textbook exercise: given the entry S401L , state whether its enrichment is greater than or equal to -0.2.
Response: rule met

Prompt: Is enrichment at least -0.2? Consider H355D
Response: rule not met

Prompt: Does the reported enrichment for M354T fall at or above the -0.2 mark?
Response: rule met

Prompt: Given the entry T336N , answer whether its enrichment meets or surpasses -0.2.
Response: rule not met

Prompt: Decide: is the reported value of enrichment for D326V equal to or greater than -0.2?
Response: rule not met

Prompt: # check: enrichment of G407V is greater than or equal to -0.2
Response: rule met

Prompt: Quick check: does F369L have enrichment greater than or equal to -0.2?
Response: rule met
